molecular target: human CB1 receptor (Homo sapiens, UniProt P21554); test: Human CB1 receptor binding, [3H] CP-55,940 displacement on HEK cell membranes; set-up: expressed in transfected cells; host or cells: HEK cells, doxycycline-induced; membrane preparation; conditions: CB1 Ki
Sequence (P21554 whole entry): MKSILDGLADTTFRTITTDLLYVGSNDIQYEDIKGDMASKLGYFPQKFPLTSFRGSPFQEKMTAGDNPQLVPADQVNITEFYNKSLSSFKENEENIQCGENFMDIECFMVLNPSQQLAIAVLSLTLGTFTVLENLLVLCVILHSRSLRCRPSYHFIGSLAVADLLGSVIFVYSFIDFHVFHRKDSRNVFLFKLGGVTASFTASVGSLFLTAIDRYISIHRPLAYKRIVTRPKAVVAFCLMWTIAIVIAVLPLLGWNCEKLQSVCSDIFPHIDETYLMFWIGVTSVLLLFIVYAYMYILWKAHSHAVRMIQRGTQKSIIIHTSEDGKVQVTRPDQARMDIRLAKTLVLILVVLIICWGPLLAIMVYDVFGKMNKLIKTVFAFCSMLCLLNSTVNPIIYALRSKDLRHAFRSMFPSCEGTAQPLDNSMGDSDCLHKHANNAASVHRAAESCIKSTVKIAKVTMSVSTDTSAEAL
# label = 1 (yes) if Ki < 2 nM else 0 (no)

CC(C)(C)C(NC(=O)c1nn(Cc2ccc(C#N)cc2)c2ccc(F)cc12)C(N)=O (stereo not drawn) [Example 163]; 0 (no)
COc1cc(C#N)ccc1Cn1nc(C(=O)N[C@@H](C(N)=O)C(C)(C)C)c2ccccc21 [Example 394]; 0 (no)
CC(C)(C)[C@H](NC(=O)c1nn(Cc2ccc(C#N)cc2)c2cc(F)ccc12)C(=O)N1CC(C(N)=O)C1 [Example 353]; 0 (no)

Note: attention shifts to another entry.
Decide: Ki of CC(C)(C)[C@H](NC(=O)c1nn(Cc2ccc(C#N)cc2)c2cc(F)ccc12)C(=O)NC[C@H]1C[C@@H]1CO [Example 487] strictly below 2 nM? 0 (no)

###

molecular target: human CB1 receptor (Homo sapiens); assay: [35S] GTPγS binding on membranes of CHO cells expressing the human CB1 receptor (agonism); assay type: biochemical; set-up: expressed in transfected cells; membrane preparation; conditions: human CB1, CHO cell membranes, read-out: GTPγS EC50
pEC50: −log10 of the molar value.
Tick y if pEC50 is 8 or greater. Tick n if pEC50 is less than 8.

CC(C)(C)[C@H](NC(=O)c1nn(Cc2ccc(F)cc2)c2ccccc12)C(=O)NCCNc1ccccn1; n
CC(C)(C)C(NC(=O)c1nn(Cc2ccc(F)cc2)c2ccccc12)C(=O)NCCc1nnc(C2CC2)o1 (stereo not shown); n
CC(C)(C)[C@H](NC(=O)c1nn(Cc2ccc(F)cc2)c2ccccc12)C(=O)NCc1nnc(C(N)=O)o1; y

Note: attention shifts to another entry.
Is pEC50 at least 8? Consider CC(C)(C)[C@H](NC(=O)c1nn(Cc2ccc(F)cc2)c2ccccc12)C(=O)N1CCC(CCO)CC1 n

###

Recorded EC50 for the following molecules
target: human CB1 receptor (Homo sapiens); test: [35S] GTPγS binding on membranes of CHO cells expressing the human CB1 receptor (agonism); assay type: biochemical; parameters: expressed in transfected cells; membrane preparation; settings: human CB1, CHO cell membranes, read-out: GTPγS EC50
Write it as a number; the unit nM goes unstated.

CC(C)(C)C(NC(=O)c1nn(Cc2ccc(F)cc2)c2c(F)cccc12)C(=O)NCCNS(=O)(=O)C1CC1 (stereo not shown) [Example 186]; 1.03
CC(C)(C)[C@H](NC(=O)c1nn(Cc2ccc(F)cc2)c2ccccc12)C(=O)NCCS(=O)(=O)N1CCOCC1 [Example 357]; 48.6

Identify measured EC50 obtained with human CB1 receptor (Homo sapiens) for CC(C)(C)[C@H](NC(=O)c1nn(Cc2ccc(F)cc2)c2ccccc12)C(=O)NCc1nc2n(n1)CCC2 [Example 415] . 10.8

Identify measured EC50 obtained with human CB1 receptor (Homo sapiens) for CC(C)(C)[C@H](NC(=O)c1nn(Cc2ccc(F)cc2)c2ccccc12)C(=O)NCCOc1ccccn1 [Example 478] . 23.7

Identify measured EC50 obtained with human CB1 receptor (Homo sapiens) for CC(C)(C)[C@H](NC(=O)c1nn(Cc2ccc(F)cc2)c2ccccc12)C(=O)NCCN1CCCC1=O [Example 499] . 204

Identify measured EC50 obtained with human CB1 receptor (Homo sapiens) for CC(C)(C)[C@H](NC(=O)c1nn(Cc2ccc(F)cc2)c2ccccc12)C(=O)N1CCN(CC(N)=O)CC1 [Example 262] . 38.9

Identify measured EC50 obtained with human CB1 receptor (Homo sapiens) for CCOC(=O)c1nc(CNC(=O)C(NC(=O)c2nn(Cc3ccc(F)cc3)c3ccccc23)C(C)(C)C)no1 (stereo not shown) [Example 135] . 14.3
